Target: angiotensin I-converting enzyme (ACE) (Homo sapiens, UniProt P12821)
Sequence (P12821 30-1256): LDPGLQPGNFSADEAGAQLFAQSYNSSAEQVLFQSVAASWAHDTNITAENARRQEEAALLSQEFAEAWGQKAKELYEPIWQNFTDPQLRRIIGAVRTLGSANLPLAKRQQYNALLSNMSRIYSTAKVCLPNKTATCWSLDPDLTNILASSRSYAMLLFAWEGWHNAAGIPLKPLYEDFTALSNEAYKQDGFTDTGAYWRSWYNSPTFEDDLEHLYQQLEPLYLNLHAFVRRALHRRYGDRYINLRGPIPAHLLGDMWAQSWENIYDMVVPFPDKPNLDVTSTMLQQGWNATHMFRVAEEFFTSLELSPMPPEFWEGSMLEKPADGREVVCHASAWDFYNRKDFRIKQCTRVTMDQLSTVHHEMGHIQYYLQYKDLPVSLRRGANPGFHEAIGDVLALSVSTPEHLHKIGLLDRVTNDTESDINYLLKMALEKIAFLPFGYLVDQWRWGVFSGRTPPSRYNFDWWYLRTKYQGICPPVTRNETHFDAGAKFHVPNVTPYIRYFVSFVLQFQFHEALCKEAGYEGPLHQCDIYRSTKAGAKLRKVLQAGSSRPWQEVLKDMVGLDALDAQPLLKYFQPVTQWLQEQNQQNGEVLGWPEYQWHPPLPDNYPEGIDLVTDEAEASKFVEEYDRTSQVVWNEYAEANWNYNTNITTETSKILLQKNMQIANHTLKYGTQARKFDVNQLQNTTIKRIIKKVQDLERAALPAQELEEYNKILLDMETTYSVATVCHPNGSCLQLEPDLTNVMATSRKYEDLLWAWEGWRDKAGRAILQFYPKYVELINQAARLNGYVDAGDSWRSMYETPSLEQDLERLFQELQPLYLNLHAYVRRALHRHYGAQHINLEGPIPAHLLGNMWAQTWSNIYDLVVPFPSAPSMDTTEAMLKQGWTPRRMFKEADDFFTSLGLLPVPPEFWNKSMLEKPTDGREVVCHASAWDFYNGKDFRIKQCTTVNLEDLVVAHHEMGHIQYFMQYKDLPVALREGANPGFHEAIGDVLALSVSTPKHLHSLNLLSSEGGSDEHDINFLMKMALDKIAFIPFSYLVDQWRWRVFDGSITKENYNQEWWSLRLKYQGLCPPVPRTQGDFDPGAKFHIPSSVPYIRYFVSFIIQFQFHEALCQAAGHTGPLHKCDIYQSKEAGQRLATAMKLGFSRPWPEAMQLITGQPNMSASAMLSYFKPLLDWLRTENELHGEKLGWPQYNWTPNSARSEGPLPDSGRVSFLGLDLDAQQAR
recorded metric: log10(IC50 of ACE inhibitory activity (enzyme activity, Dojindo ACE kit, synthetic peptide)) (log10 of the value in nM)
Recorded IC50 of ACE inhibitory activity (enzyme activity, Dojindo ACE kit, synthetic peptide) (log10, nM)

Return the recorded log10(IC50 of ACE inhibitory activity (enzyme activity, Dojindo ACE kit, synthetic peptide)) value; entry: KLQE [G. vrijenhoeki peptide (GVP)-1]
3.47

Return the recorded log10(IC50 of ACE inhibitory activity (enzyme activity, Dojindo ACE kit, synthetic peptide)) value; entry: LNSL [G. vrijenhoeki peptide (GVP)-6]
3.14

Return the recorded log10(IC50 of ACE inhibitory activity (enzyme activity, Dojindo ACE kit, synthetic peptide)) value; entry: KVLH [G. vrijenhoeki peptide (GVP)-2]
2.21

Return the recorded log10(IC50 of ACE inhibitory activity (enzyme activity, Dojindo ACE kit, synthetic peptide)) value; entry: ALRPKF [G. vrijenhoeki peptide (GVP)-7]
1.38

Return the recorded log10(IC50 of ACE inhibitory activity (enzyme activity, Dojindo ACE kit, synthetic peptide)) value; entry: PGLADMR [G. vrijenhoeki peptide (GVP)-8]
2.71

Return the recorded log10(IC50 of ACE inhibitory activity (enzyme activity, Dojindo ACE kit, synthetic peptide)) value; entry: KLLWNGKM [G. vrijenhoeki peptide (GVP)-10]
0.85

Return the recorded log10(IC50 of ACE inhibitory activity (enzyme activity, Dojindo ACE kit, synthetic peptide)) value; entry: PSLVG [G. vrijenhoeki peptide (GVP)-5]
2.76

Return the recorded log10(IC50 of ACE inhibitory activity (enzyme activity, Dojindo ACE kit, synthetic peptide)) value; entry: KVHL [G. vrijenhoeki peptide (GVP)-3]
2.47

Return the recorded log10(IC50 of ACE inhibitory activity (enzyme activity, Dojindo ACE kit, synthetic peptide)) value; entry: YALPHAL [G. vrijenhoeki peptide (GVP)-11]
2.90
